Numbers sourced from the RNAGym collection of RNA variant scans (doi:10.1073/pnas.2313332121).

B1: TPR t1 (parent)
chain: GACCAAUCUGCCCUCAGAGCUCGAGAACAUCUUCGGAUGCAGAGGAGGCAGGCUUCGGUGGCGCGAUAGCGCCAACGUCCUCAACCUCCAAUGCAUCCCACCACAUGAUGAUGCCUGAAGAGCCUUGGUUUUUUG

- Variants of: B1
- testSummary: polymerase ribozyme fitness, log enrichment relative to wild type (log ratio); higher = more active; in vitro selection for triplet polymerase activity
Give polymerase ribozyme fitness (log ratio) for every item shown.
Respond with the number and no other words.

query: Request the reported polymerase ribozyme fitness (log ratio) associated with C11A G69C A121G
result: -0.0496

query: Request the reported polymerase ribozyme fitness (log ratio) associated with G36U G127A
result: -2.27

query: Request the reported polymerase ribozyme fitness (log ratio) associated with A43C U131C
result: -1.94

query: Request the reported polymerase ribozyme fitness (log ratio) associated with `C28U`
result: -1.69

query: Request the reported polymerase ribozyme fitness (log ratio) associated with C13G G48C G63U A105C C124A
result: -4.22

query: Request the reported polymerase ribozyme fitness (log ratio) associated with U55G C102A G110A U130A
result: -6.51

query: Request the reported polymerase ribozyme fitness (log ratio) associated with C12U C34G C115G
result: -6.11

query: Request the reported polymerase ribozyme fitness (log ratio) associated with A5C G61A
result: -0.269

query: Request the reported polymerase ribozyme fitness (log ratio) associated with C11G C86G
result: -1.7

query: Request the reported polymerase ribozyme fitness (log ratio) associated with C13G G61A
result: -1.99

query: Request the reported polymerase ribozyme fitness (log ratio) associated with C56U A95C A118C C124A U132A
result: -0.917
